Test: Inhibition of caspase-like activity of rabbit 20S proteasome
Parameters: species or system Oryctolagus cuniculus
Kindly state pIC50 for each of the entries shown.
One number for each entry, as −log10 of the molar value.

IN: pIC50 lookup needed for C[C@@]12OC(=O)[C@]1([C@@H](O)[C@@H]1C=CCCC1)NC(=O)[C@@H]2CCBr [BROMOSALINOSPORAMIDE] , thanks.
OUT: 6.54

IN: pIC50 lookup needed for "CCC[C@H]1C(=O)N[C@@]2([C@@H](O)[C@@H]3C=CCCC3)C(=O)O[C@@]12C" , thanks.
OUT: 5.92

IN: pIC50 lookup needed for "C[C@@]12OC(=O)[C@]1([C@@H](O)[C@@H]1C=CCCC1)NC(=O)[C@@H]2CCOS(C)(=O)=O" , thanks.
OUT: 6.06

Quick batch: pIC50 for everything below.
1. Cc1ccc(S(=O)(=O)OCC[C@H]2C(=O)N[C@@]3([C@@H](O)[C@@H]4C=CCCC4)C(=O)O[C@@]23C)cc1
2. C[C@@]12OC(=O)[C@@]1([C@@H](O)[C@@H]1C=CCCC1)NC(=O)[C@@H]2CCO [hydroxysalinosporamide A]
3. CN(C)c1cccc2c(S(=O)(=O)OCC[C@H]3C(=O)N[C@@]4([C@@H](O)[C@@H]5C=CCCC5)C(=O)O[C@@]34C)cccc12
4. C[C@H]1C(=O)N[C@@]2([C@@H](O)[C@@H]3C=CCCC3)C(=O)O[C@@]12C
5. C[C@@]12OC(=O)[C@]1([C@@H](O)[C@@H]1C=CCCC1)NC(=O)[C@@H]2CCI [IODOSALINOSPORAMIDE]

OUT:
6.90
5.92
7.05
6.34
6.39
